B1: TPR t1 (parent)
chain: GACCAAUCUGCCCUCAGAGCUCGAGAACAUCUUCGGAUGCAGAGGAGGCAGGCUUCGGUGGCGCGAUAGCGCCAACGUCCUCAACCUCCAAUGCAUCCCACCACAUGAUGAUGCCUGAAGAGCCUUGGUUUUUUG

variants of: B1; test: polymerase ribozyme fitness, log enrichment relative to wild type (log ratio); higher = more active; in vitro selection for triplet polymerase activity
Measured metric: polymerase ribozyme fitness (log ratio)

Entry sequence	Obs value
GACCAAUCUGCCCUCAGUGCUCGAGAACAUCUUCGUAUGCAGAGGAGUCAGGCUUCGGUGGCGCGAUAUCGCCAACGUCCUCAACCUCCAAUGCAUCCCACCACAUGAUGAUGCCUGAAUAUCCUUGGUUUUUUG [A18U G36U G48U G69U G120U G122U]	-1.69
GACCAAUCUGCCCUCAGAGCUAGAGAACAUCUUCGGAUGCAGAGGAGGCAGGCUUCGGUGGCGCGAUAGCGCCAACGUCCUCAACCUCCAAUGCAUCCCACCACAUGAUGAUGCCCGAAGGGCCUUGGCUUUUUG [C22A U116C A121G U129C]	-5.72
GACCAAUCUGCCCACAGAGCUCGAGAACAUCCUCGGAUGCAGAGGAGGCAGGCUUCGGUGGCGCGAUAGCGCCAACGUCCUCAACCACCAAUGCAUCCCAACACAUGAUGAUGCCUGAAGAGCCUUGGUUUUUUG [U14A U32C U87A C101A]	-3.54
GACCAAUCUGCCCUCAGAGCUCGAGAAUAUCUUCGGAUGCAGAGGAGGCAGGCUUCGGUAGCGCGAUAGCGCCAACGUCCUCAACCUCCAAUGCAUCCCACCACAUGAUGAUGCCUGAAGAGCCUUGGUUUUUUG [C28U G60A]	-2.05
GACCAAUCUGCCCUCAGAGCUCGAGAACAUCUUCGGAUGCAGAGGAGGCAGGGUUCGGUGGCCCGAUAGCGCCAACGUCCUCAACCUCCACUGCAUCCCACCACAUGAUGAUGCCUGCAGAGCCUUGGUUUUUUG [C53G G63C A91C A118C]	-4.54
GGCCAAUCUGCCCUCAGAGCUCGAGAACAUCUUCGGAUGCAGAGGAGGCAGGCUUCGGUGGCGCGAUAGCGCCAACGUCCUCAACCUCCAAUGCAUCCUAACACAUGAUGAUGCCUGAAGGGCGUUGGUUUUUUG [A2G C99U C101A A121G C124G]	-2.5
GACCAAUCUGCCCUCAGAGCUCGAGAACAUCUUCGGAUGCAGAGGAGGCAGGCUUCGGUGGCGCGAUAGCGCCAACGUCCUCAACCUCCAAUGCAUCCCACAACAUGAUGAUCCCUGAAGAGCCUCGGUUUUUUG [C102A G113C U126C]	-4.92
GACCAAUCUGCCCUCAGAGCUCGAGAACAUCUUCGGAUGCAGAGGAGGCAGGCUUCGGUAGCGCGAUAGCGCCAACGUCCUCAACCUCCAAUGCAUCCCACCAUAUGAUGAUGCCUGAAGAGCCUUGGUUUUUUG [G60A C104U]	0.164
GACCAAUCUGCCCUCAGAGCUCGAGAACAUCUUCGGAUGCAGAGGAGGCAGGCUUCGGUGGAGCGAUAGCGCCAACGGCCUCAACCUCCAAUGCAUCCCACCACAUGAUGAUGCCUGAAGAGCCUUGGUUUUUUG [C62A U78G]	-2.46
GACCAAUCUGCCCUCAGAGGUCGAGAACAUCUUCGGAUGCAGAGGAGGCAGACUUCGGUGGCGCGAUAGCGCCAACGUCCUCAACCUCCAAUGCAUCCCACCACAUGAUGUUGCCUGAAGAGCCUUGGUUUUUUG [C20G G52A A111U]	-3.23
GACCAAUGUGCCCUCAGAGCUCGAGAACAUCUUCGGAUGCAGAGGAGGCAGUCUUCGGUGGCGCGAUAGCGCCAACGUCCUCAACCUCCAAUGCAUCCCACCACAUGAUGAUGCCUGAAGAGCCUUGGUUUUUUG [C8G G52U]	0.359
GACCAAUCUGCCCUCAGAGCUCGAGAACAUCUUCGGAUGCAGAGGAGGCAGGCUUGGGUGGCGCGAUAGCGCCAACGUCCUCAACCACCAAUGCAUCCCACCACAUGAUGAUGCCUGAAAAGCCUUGGUUUUUUG [C56G U87A G120A]	-0.872
GACCAAUCUGCCCUCAGAGCUCGAGAACAUCUUAGGAUGCGGAGGAGGCAGGCUUCGGUGGCGCGAUAGCGCCAACGUCCUCAACCUCCAAUGCAUCCCACCACAUGAUGAUGCCUGAAGAGCCUUGGUUUUUUG [C34A A41G]	-3.94
GACCAAUCUGCCCUCAGAGCUCGGGAACAUCUUCGGAUGCAGAGGAGGCAGGCUUCGGUGGCGCGAUAGCGUCAACGUCCUCAACCUCCAAUGCAUCCCACCACAUGAUGAUGCCUGAAGAGCCUUGGUUUUUUG [A24G C72U]	-1.6
GACCAAUCUGCCCUCAGAGCUCGAGAACAUCUUCGGAUGGAGAGGAGGUAGGCUUCGGUGGCGCGAUAGCGCCUACGACCUCAACCUCCAAUGCAUCCCACCACAUGAUGAUGCCUGAAGAGCCUUGGUUUUUUG [C40G C49U A74U U78A]	-3.07
GACCAAUCGGCCGUCAGAGCUCGAGAACAUCUUCGGAUGCAGAGGAGGCAGGGUUUGGUGGCGCGAUAGCGCCAACGUCCUCAACUUCCAAUGCAUCCCACCACAUGAUGUUGCCUGAAGAGCCUUGGUUUUUUG [U9G C13G C53G C56U C86U A111U]	-2.52
GACCAACCUGCCCUCAGAGCUCGAGAACAUCUUCGGAUGCAGAGGAGGCAGGCUUCGGUGGCGCGAUAGCGCCAACGUCCUCAACCUCUAAUGCAUCCCACCACAUGAAGAUGCCUGAAGAGCCUUGGUUUUUUG [U7C C89U U109A]	-4.17
GACCAAUCUGCCCUCAGAGCUCGAGAACAUCUUCGGAUGCAGUGGGGGCAGGCUUCGGUGGGGCGAUAGCGCCAACGUCCUCAACCUCCAAUGCAUCCCACCACAUGAUGAUGCCUGAAGAGCCUUGGUUUUUUG [A43U A46G C62G]	-4.27
GACCAAUCUGCCCUCAGAGCUCGAGAACAUCUUCGGAUGCAGAGGAGGCAAGCUUCGGUGGUGCGAUAGCGCCAACGUCCUCAACCUCCAAUGCAUCCCACCACAUGAUGAAUCCUGAAGAGCCUUGGUUUUUUG [G51A C62U U112A G113U]	-4.77
GACCAAUCUGCCCUCAGAGCUCGAGAACAUCUUCGGAUGCAGAGGAGGCAGGCUUCGGUGGCGCGAUAGCGCCAACGUCCUCAACCUCCAAUGCAUCCCCCCACAUGAUGAGGCCAGAAGAGCCUUGGUUUUUUG [A100C U112G U116A]	-4.36
GACCAAUCUGCCCUCAGAGCUCGAGAACAUCUUCGGAUGCAGAGGAGGCAGGGUUCGGUUGCGCUAUAGCGCCAACGUCCUCAACCUCCAAUGCAUCCCACCAUAUGAUGAUGCCUGAAGAGCCUUGGUUUUUUG [C53G G60U G65U C104U]	-7.04
GACCAAUCUGCCCUCAGAGCUCGAGAACAUCUUCGGAUGCAGAGGAGGCAGGCCUCGGUGGCGCGAUAGUGCCAACGUCCUCAACCUCCAAUGCAUCCCACCACAUGAUGAUGCCUGAAGAGCCUUGGUUUUUUG [U54C C70U]	-0.253
